Measured values drawn from patent US20140128280A1 for this set.

# Tested on: T1, Gal80 (UniProt P04387 1-435, limits assumed)
# T1 construct: Cy3/Cy5-labeled on arrays; immobilized on SPR chip or ELISA well, or in solution over immobilized synbody
# T1 sequence (looked up): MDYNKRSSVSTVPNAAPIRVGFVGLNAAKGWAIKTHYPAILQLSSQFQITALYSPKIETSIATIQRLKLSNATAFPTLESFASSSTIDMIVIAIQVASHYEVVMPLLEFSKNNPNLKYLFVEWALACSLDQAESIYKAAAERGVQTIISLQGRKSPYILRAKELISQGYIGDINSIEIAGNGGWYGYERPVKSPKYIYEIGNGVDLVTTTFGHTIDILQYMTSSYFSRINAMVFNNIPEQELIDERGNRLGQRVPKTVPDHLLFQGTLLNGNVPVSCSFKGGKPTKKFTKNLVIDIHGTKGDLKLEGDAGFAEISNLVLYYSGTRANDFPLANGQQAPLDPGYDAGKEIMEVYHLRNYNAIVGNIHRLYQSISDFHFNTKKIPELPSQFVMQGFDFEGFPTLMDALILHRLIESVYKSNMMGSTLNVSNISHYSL
# Measurement description: SPR, synbody in solution (1 µM to 7.81 nM) over surface-bound Gal80
Quantity kind: Kd (nM)
Hi! Could you send only the number? It should be in nM, unit omitted.

Could you share which Kd value was measured for BP1/BP2 DNA-linked synbody (linker-optimized: BP1 on the template strand, BP2 at position 13 from the 3' end of the variable strand) (designed binder, C-terminal Cys joined through SMCC to the amine-modified cytosine at position 13 from the 3' terminus of the DNA variable strand (SEQ ID NO: 15); C-terminal Cys joined through SMCC to the 5' terminal amine-modified cytosine of the DNA template strand (SEQ ID NO: 14), Two peptides held by a double-stranded DNA linker; also called Gal80 synbody; gal80 synbody) peptide 1: GTEKGTSGWLKTGSC peptide 2: EGEWTEGKLSLRGSC ? 91
